These data points were gathered from patent US10118947B2.

Reported Ki by item:
target: rat plasma Kallikrein (Rattus norvegicus, UniProt P14272); construct: polyhistidine tag (N, cleaved yes); proTEV cleavage site (pro-peptide linker) (N, cleaved yes); made in house; host or cells: HEK-293 (suspension-adapted); test: Functional enzyme inhibition assay with fluorogenic substrate Z-PheArg-AMC, rat plasma Kallikrein; type: biochemical; settings: Table 26a, loop2 stability enhanced candidates
Sequence (P14272 391-638 limits assumed): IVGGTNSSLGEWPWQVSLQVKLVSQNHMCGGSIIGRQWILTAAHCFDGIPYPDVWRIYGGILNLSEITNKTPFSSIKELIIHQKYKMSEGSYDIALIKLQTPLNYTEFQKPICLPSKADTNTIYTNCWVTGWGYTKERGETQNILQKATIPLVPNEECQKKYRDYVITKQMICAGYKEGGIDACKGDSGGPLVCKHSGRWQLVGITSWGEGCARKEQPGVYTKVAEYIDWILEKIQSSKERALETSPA
Numbered stars: 1 amine (or outer) side, 2 acyl side, 3 side chain; on linkers, the order of the positions; unused ones are H or OH. Bridge positions count the residues as written; N and C are the ends. Square brackets hold non-standard residues; d marks the D form. Peptide text beside a SMILES is read from it. TBMB = c1c(C[*:1])cc(C[*:3])cc1C[*:2]; Chg = N[C@H](C(=O)O)C1CCCCC1; Phg = N[C@H](C(=O)O)c1ccccc1; Tle = CC(C)(C)[C@H](N)C(=O)O

compound	Ki
CC(=O)N[C@H]1CSCc2cc3cc(c2)CSC[C@H](NC(=O)[C@H](CCCNC(=N)N)NC(=O)[C@H](Cc2ccc(O)cc2)NC(=O)[C@@H]2CCCN2C(=O)[C@H](Cc2ccccc2)NC(=O)[C@H](CO)NC1=O)C(=O)N[C@@H](CC(C)C)C(=O)N[C@@H](Cc1c[nH]cn1)C(=O)N[C@@H](CCC(N)=O)C(=O)N[C@H](CC(=O)O)C(=O)N[C@@H](CC(C)C)C(=O)N[C@H](C(N)=O)CSC3 [Ac-(06-34-18) Phe2 Tyr4 D-Asp9] (Ac-CSFPYRCLHQ[dD]LC-NH2; linker 1-7-13 via TBMB)	32 nM
CC(=O)N[C@H]1CSCc2cc3cc(c2)CSC[C@H](NC(=O)[C@H](CCCNC(=N)N)NC(=O)[C@H](Cc2ccc(O)cc2)NC(=O)[C@@H]2CCCN2C(=O)[C@H](Cc2ccccc2)NC(=O)[C@H](CO)NC1=O)C(=O)N[C@@H](C(C)(C)C)C(=O)N[C@@H](Cc1c[nH]cn1)C(=O)N[C@@H](CCC(N)=O)C(=O)N[C@@H](CC(=O)O)C(=O)N[C@@H](CC(C)C)C(=O)N[C@H](C(N)=O)CSC3 [Ac-(06-34-18) Phe2 Tyr4 tBuGly6] (Ac-CSFPYRC[Tle]HQDLC-NH2; linker 1-7-13 via TBMB)	218 nM
CC(=O)N[C@H]1CSCc2cc3cc(c2)CSC[C@H](NC(=O)[C@H](CCCNC(=N)N)NC(=O)[C@H](Cc2ccc(O)cc2)NC(=O)[C@@H]2CCCN2C(=O)[C@H](Cc2ccccc2)NC(=O)[C@H](CO)NC1=O)C(=O)N[C@@H](c1ccccc1)C(=O)N[C@@H](Cc1c[nH]cn1)C(=O)N[C@@H](CCC(N)=O)C(=O)N[C@@H](CC(=O)O)C(=O)N[C@@H](CC(C)C)C(=O)N[C@H](C(N)=O)CSC3 [Ac-(06-34-18) Phe2 Tyr4 Phg6] (Ac-CSFPYRC[Phg]HQDLC-NH2; linker 1-7-13 via TBMB)	7.23 nM
CC(=O)N[C@H]1CSCc2cc3cc(c2)CSC[C@H](NC(=O)[C@H](CCCNC(=N)N)NC(=O)[C@H](Cc2ccc(O)cc2)NC(=O)[C@@H]2CCCN2C(=O)[C@H](Cc2ccccc2)NC(=O)[C@H](CO)NC1=O)C(=O)N[C@@H](C)CN[C@@H](Cc1c[nH]cn1)C(=O)N[C@@H](CCC(N)=O)C(=O)N[C@@H](CC(=O)O)C(=O)N[C@@H](CC(C)C)C(=O)N[C@H](C(N)=O)CSC3 [Ac-(06-34-18) Phe2 Tyr4 Ala(ψCH2NH)6]	43.6 nM
CC(=O)N[C@H]1CSCc2cc3cc(c2)CSC[C@H](NC(=O)[C@H](CCCNC(=N)N)NC(=O)[C@H](Cc2ccc(O)cc2)NC(=O)[C@@H]2CCCN2C(=O)[C@H](Cc2ccccc2)NC(=O)[C@H](CO)NC1=O)C(=O)N[C@@H](C1CCCCC1)C(=O)N[C@@H](Cc1c[nH]cn1)C(=O)N[C@@H](CCC(N)=O)C(=O)N[C@@H](CC(=O)O)C(=O)N[C@@H](CC(C)C)C(=O)N[C@H](C(N)=O)CSC3 [Ac-(06-34-18) Phe2 Tyr4 Chg6] (Ac-CSFPYRC[Chg]HQDLC-NH2; linker 1-7-13 via TBMB)	9.09 nM
